Assay: Cytotoxicity against human NCM460 cells assessed as reduction in cell viability incubated for 24 hrs
Assay type: toxicity, cell-based
value kind: IC50 at 24 h

Incoming: Sample `O=Cc1c(-c2nc(NCCc3ccc(O)cc3)c3ccccc3n2)[nH]c2ccccc12` — what was its IC50 at 24 h?
Outgoing: > 15 µM

----------
Test system: RKO
Assay: Antiproliferative activity against human RKO cells assessed as reduction in cell viability incubated for 24 hrs
Assay type: functional, cell-based
value kind: IC50 (µM)
Dear colleague, please return just the value in µM, with no unit written.

Incoming: Sample `COc1ccc2[nH]c(-c3nc(NCCCN(C)C)c4ccccc4n3)c(C=O)c2c1` — what was its IC50?
Outgoing: 8.1

Incoming: Sample `Cc1ccc2[nH]c(-c3nc(NCCCN(C)C)c4ccccc4n3)c(C=O)c2c1` — what was its IC50?
Outgoing: 2

Incoming: Sample `CN(C)CCCNc1nc(-c2[nH]c3ccc(Cl)cc3c2C=O)nc2ccccc12` — what was its IC50?
Outgoing: 4.1

Incoming: Sample `COc1ccc2[nH]c(-c3nc(NCCN4CCCC4)c4ccccc4n3)c(C=O)c2c1` — what was its IC50?
Outgoing: 1.6

Incoming: Sample `O=Cc1c(-c2nc(NCCc3ccc(C(F)(F)F)cc3)c3ccccc3n2)[nH]c2ccccc12` — what was its IC50?
Outgoing: 4.2

Incoming: Sample `O=Cc1c(-c2nc(NCCN3CCCC3)c3ccccc3n2)[nH]c2ccccc12` — what was its IC50?
Outgoing: 1.1

Incoming: Sample `O=Cc1c(-c2nc(NC3CC3)c3ccccc3n2)[nH]c2ccccc12` — what was its IC50?
Outgoing: 3.9

Incoming: Sample `O=Cc1c(-c2nc(NCCN3CCCC3)c3ccccc3n2)[nH]c2ccc(F)cc12` — what was its IC50?
Outgoing: 2.1
